Values compiled from patent US20240391954A1.

Target System: human MC3R (human, UniProt P41968 1-323)
Sequence (P41968 whole entry): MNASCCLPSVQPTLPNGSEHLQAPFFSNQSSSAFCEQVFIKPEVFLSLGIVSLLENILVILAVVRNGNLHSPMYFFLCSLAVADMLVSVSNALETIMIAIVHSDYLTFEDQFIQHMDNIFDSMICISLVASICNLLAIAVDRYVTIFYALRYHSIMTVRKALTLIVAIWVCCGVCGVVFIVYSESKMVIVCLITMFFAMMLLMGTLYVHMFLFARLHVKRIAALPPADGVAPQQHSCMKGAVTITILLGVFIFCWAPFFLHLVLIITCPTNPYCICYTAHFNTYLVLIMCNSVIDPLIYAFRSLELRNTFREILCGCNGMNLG
Assay Protocol: cell-based or functional assay
Positions of bridges follow the written chain, without caps; N, C: chain ends. Non-standard residues stand in square brackets, D forms with d. Cit = NC(=O)NCCC[C@H](N)C(=O)O; Aib = CC(C)(N)C(=O)O
Attribute Measured: % max activation (%)
Quick note: give the figure in %, leave out the unit.

Binder	% max activation (%)
{CH2CO}-GR[dF]RWC-NH2 (thioether N-6; SMILES N=C(N)NCCC[C@@H]1NC(=O)CNC(=O)CSC[C@@H](C(N)=O)NC(=O)[C@H](Cc2c[nH]c3ccccc23)NC(=O)[C@H](CCCNC(=N)N)NC(=O)[C@@H](Cc2ccccc2)NC1=O) [CTX-1645]	97

Entry Ac-C[Aib][Cit][dF]RFC-NH2 (disulfide 1-7; SMILES CC(=O)N[C@H]1CSSC[C@@H](C(N)=O)NC(=O)[C@H](Cc2ccccc2)NC(=O)[C@H](CCCNC(=N)N)NC(=O)[C@@H](Cc2ccccc2)NC(=O)[C@H](CCCNC(N)=O)NC(=O)C(C)(C)NC1=O) [CTX-1636] , % max activation reported as 44
